These measurements were taken from patent US20200087363A1.

- Tested on: T1, HLA-B*44:05 (human)
- T1 construct: also called peptide-receptive MHC class I molecule
- Assay summary: UV peptide exchange, anti-b2m ELISA
- Protocol: Only peptide candidates that can effectively bind and stabilize the peptide-receptive MHC molecules prevent dissociation of the MHC complexes. […] 96 well MAXISorp plates (NUNC) were coated over night with 2 ug/ml streptavidin in PBS at room temperature, washed 4× and blocked for 1 h at 37° C. in 2% BSA containing blocking buffer. […] Absorption was measured at 450 nm.
Measurement kind: peptide exchange yield

INSERT INTO assay_data (binder, measurement_kind, reported) VALUES
  ('DEIRVFGY', 'peptide exchange yield', '20 to 50%'),
  ('DEYLIPQQGFF', 'peptide exchange yield', '20 to 50%'),
  ('HENGVLTKF', 'peptide exchange yield', '20 to 50%'),
  ('SEVLLTSISTF', 'peptide exchange yield', '> 75%'),
  ('TEQALRLSV', 'peptide exchange yield', '> 75%'),
  ('EEIFAHLGL', 'peptide exchange yield', '50 to 75%'),
  ('QELEQEVISL', 'peptide exchange yield', '50 to 75%'),
  ('RELGFTEATGW', 'peptide exchange yield', '> 75%'),
  ('AEGEPPPAL', 'peptide exchange yield', '50 to 75%');
